Tested on: Albino Swiss mice
Assay: Forced swim test
Format: in vivo
Details: mice, ip, 30 min before the test
Result Type: antidepressant effect in the forced swim test (in words)

> print(dat)
                         structure.notation  value.observed
1  CCCCCCCCCN1CCN(c2ccc3cc([N+](=O)[O-])ccc3n2)CC1     ineffective
2  CCCCCCCCCCCN1CCN(c2ccc3cc([N+](=O)[O-])ccc3n2)CC1     ineffective

Reference source for all entries: paper PMC3665732
